Tested on: 186277-243-T-J2-PDC complex spheroids, viability
Test: Anticancer human tumor 186277-243-T-J2-PDC patient-derived colon adenocarcinoma cell line growth inhibition [RAS]; active = viability on the fitted dose curve at most 10% of control; inactive = the rest
Conditions: second compound 0.03 µM; first compound 1 µM
Please state which outcome applies, choosing from active, inactive

Ask: For CCN1CCN(Cc2ccc(Nc3ncc(F)c(-c4cc(F)c5nc(C)n(C(C)C)c5c4)n3)nc2)CC1 + CCn1c(-c2cc(N3CCN(C)CC3)cnc2C(C)OC)c2c3cc(ccc31)-c1csc(n1)CC(NC(=O)C1CC1C)C(=O)N1CCCC(N1)C(=O)OCC(C)(C)C2 , what call appears in the results of this test?
Result: active

Ask: For CC(=O)OC12COC1CC(O)C1(C)C(=O)C(O)C3=C(C)C(OC(=O)C(O)C(NC(=O)OC(C)(C)C)c4ccccc4)CC(O)(C(OC(=O)c4ccccc4)C21)C3(C)C (centres undefined) + CCn1c(-c2cc(N3CCN(C)CC3)cnc2C(C)OC)c2c3cc(ccc31)-c1csc(n1)CC(NC(=O)C1CC1C)C(=O)N1CCCC(N1)C(=O)OCC(C)(C)C2 , what call appears in the results of this test?
Result: active

Ask: For C[C@@H](NC(=O)c1ncnc(N)c1Cl)c1ncc(C(=O)Nc2cc(C(F)(F)F)c(Cl)cn2)s1 + CCn1c(-c2cc(N3CCN(C)CC3)cnc2C(C)OC)c2c3cc(ccc31)-c1csc(n1)CC(NC(=O)C1CC1C)C(=O)N1CCCC(N1)C(=O)OCC(C)(C)C2 , what call appears in the results of this test?
Result: inactive

Ask: For Cc1nc(N2CCC3(CC2)COC(C)C3N)c(CO)nc1Sc1ccnc(N)c1Cl (centres undefined) + CCn1c(-c2cccnc2C(C)OC)c2c3cc(ccc31)N1CCOC(CC(NC(=O)C(C(C)C)N(C)C(=O)C3(F)CCN(C(=O)C#CC(C)(C)N(C)C)CC3)C(=O)N3CCCC(N3)C(=O)OCC(C)(C)C2)C1 , what call appears in the results of this test?
Result: inactive

====

Record form. Attribute: viability, T/C. Fill in for each entry.
Test system: 186277-243-T-J2-PDC complex spheroids, viability
Assay: Anticancer human tumor 186277-243-T-J2-PDC cell line growth inhibition [RAS];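 also: spheroids exposed to compounds for 7 days before viability read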
Details: second compound 0.000949 µM; first compound 0.1 µM; active compounds read low
Answer with a number only, understood to be in %.

The value of viability, T/C measured for the molecule CC(=O)OC12COC1CC(O)C1(C)C(=O)C(O)C3=C(C)C(OC(=O)C(O)C(NC(=O)OC(C)(C)C)c4ccccc4)CC(O)(C(OC(=O)c4ccccc4)C21)C3(C)C (configuration not stated) + CCn1c(-c2cccnc2C(C)OC)c2c3cc(ccc31)N1CCOC(CC(NC(=O)C(C(C)C)N(C)C(=O)C3(F)CCN(C(=O)C#CC(C)(C)N(C)C)CC3)C(=O)N3CCCC(N3)C(=O)OCC(C)(C)C2)C1 turned out to be 4.29

The value of viability, T/C measured for the molecule CCC(CC)c1cc(NC2CCC(N)C2)n2nccc2n1 (configuration not stated) + CCn1c(-c2cc(N3CCN(C)CC3)cnc2C(C)OC)c2c3cc(ccc31)-c1csc(n1)CC(NC(=O)C1CC1C)C(=O)N1CCCC(N1)C(=O)OCC(C)(C)C2 turned out to be 115

====

Record form. Attribute: viability, T/C. Fill in for each entry.
Tested on: 186277-243-T-J2-PDC complex spheroids, viability
Assay: Anticancer human tumor 186277-243-T-J2-PDC cell line growth inhibition [RAS];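 also: spheroids exposed to compounds for 7 days before viability read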
Details: second compound 0.000949 µM; first compound 0.1 µM; active compounds read low

The value of viability, T/C measured for the compound CC(C)n1nc(-c2ccc3oc(N)nc3c2)c2c(N)ncnc21 + CCn1c(-c2cc(N3CCN(C)CC3)cnc2C(C)OC)c2c3cc(ccc31)-c1csc(n1)CC(NC(=O)C1CC1C)C(=O)N1CCCC(N1)C(=O)OCC(C)(C)C2 turned out to be 34.8%

The value of viability, T/C measured for the compound CC1(O)CCCC1n1c(=O)c(C(F)F)cc2cnc(NC3CCN(S(C)(=O)=O)CC3)nc21 (centres undefined) + CCn1c(-c2cc(N3CCN(C)CC3)cnc2C(C)OC)c2c3cc(ccc31)-c1csc(n1)CC(NC(=O)C1CC1C)C(=O)N1CCCC(N1)C(=O)OCC(C)(C)C2 turned out to be 104%

The value of viability, T/C measured for the compound C[C@@H](NC(=O)c1ncnc(N)c1Cl)c1ncc(C(=O)Nc2cc(C(F)(F)F)c(Cl)cn2)s1 + CCn1c(-c2cccnc2C(C)OC)c2c3cc(ccc31)N1CCOC(CC(NC(=O)C(C(C)C)N(C)C(=O)C3(F)CCN(C(=O)C#CC(C)(C)N(C)C)CC3)C(=O)N3CCCC(N3)C(=O)OCC(C)(C)C2)C1 turned out to be 85.1%

The value of viability, T/C measured for the compound C=CC(=O)Nc1cc(Nc2nccc(-c3cn(C)c4ccccc34)n2)c(OC)cc1N(C)CCN(C)C + CCn1c(-c2cccnc2C(C)OC)c2c3cc(ccc31)N1CCOC(CC(NC(=O)C(C(C)C)N(C)C(=O)C3(F)CCN(C(=O)C#CC(C)(C)N(C)C)CC3)C(=O)N3CCCC(N3)C(=O)OCC(C)(C)C2)C1 turned out to be 83.8%

====

Record form. Attribute: viability, T/C. Fill in for each entry.
Tested on: 186277-243-T-J2-PDC complex spheroids, viability
Experiment: Anticancer human tumor 186277-243-T-J2-PDC cell line growth inhibition [RAS];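 also: spheroids exposed to compounds for 7 days before viability read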
Conditions: second compound 0.0316 µM; first compound 0.003 µM; active compounds read low
Answer with a number only, understood to be in %.

The value of viability, T/C measured for the molecule CCc1c2c(nc3ccc(O)cc13)-c1cc3c(c(=O)n1C2)COC(=O)[C@]3(O)CC + C=CC(=O)N1CCN(c2nc(OCC3CCCN3C)nc3c(F)c(-c4nc(N)cc(C)c4C(F)(F)F)c(Cl)cc23)C(C)C1 turned out to be 95.6

The value of viability, T/C measured for the molecule CCc1c2c(nc3ccc(O)cc13)-c1cc3c(c(=O)n1C2)COC(=O)[C@]3(O)CC + C#Cc1c(F)ccc2cc(O)cc(-c3ncc4c(N5CC6CCC(C5)N6)nc(OCC56CCCN5CC(F)C6)nc4c3F)c12 turned out to be 40.5

The value of viability, T/C measured for the molecule CC1(C)CCC(Nc2ncc(C(F)(F)F)c(-c3c[nH]c4c(P(C)(C)=O)c(C#N)ccc34)n2)CN1 (centres undefined) + C=CC(=O)N1CCN(c2nc(OCC3CCCN3C)nc3c(F)c(-c4nc(N)cc(C)c4C(F)(F)F)c(Cl)cc23)C(C)C1 turned out to be 118

The value of viability, T/C measured for the molecule CC1(C)CCC(Nc2ncc(C(F)(F)F)c(-c3c[nH]c4c(P(C)(C)=O)c(C#N)ccc34)n2)CN1 (centres undefined) + C#Cc1c(F)ccc2cc(O)cc(-c3ncc4c(N5CC6CCC(C5)N6)nc(OCC56CCCN5CC(F)C6)nc4c3F)c12 turned out to be 80.4

====

System: 186277-243-T-J2-PDC complex spheroids, viability
Experiment: Anticancer human tumor 186277-243-T-J2-PDC cell line growth inhibition [RAS]; active means viability on the fitted dose curve at most 10% of control; inactive means the rest;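 also: spheroids exposed to compounds for 7 days before viability read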
Conditions: second compound 0.3 µM; first compound 1 µM
Please state which outcome applies, choosing from active, inactive

Ask: For CCN1CCN(Cc2ccc(Nc3ncc(F)c(-c4cc(F)c5nc(C)n(C(C)C)c5c4)n3)nc2)CC1 + CCn1c(-c2cccnc2C(C)OC)c2c3cc(ccc31)N1CCOC(CC(NC(=O)C(C(C)C)N(C)C(=O)C3(F)CCN(C(=O)C#CC(C)(C)N(C)C)CC3)C(=O)N3CCCC(N3)C(=O)OCC(C)(C)C2)C1 , what call appears in the results of this test?
Result: inactive

Ask: For NC1c2ccccc2OC12CCN(c1cnc3c(N4CCCc5ncccc54)n[nH]c3n1)CC2 (stereo not given) + CCn1c(-c2cccnc2C(C)OC)c2c3cc(ccc31)N1CCOC(CC(NC(=O)C(C(C)C)N(C)C(=O)C3(F)CCN(C(=O)C#CC(C)(C)N(C)C)CC3)C(=O)N3CCCC(N3)C(=O)OCC(C)(C)C2)C1 , what call appears in the results of this test?
Result: inactive

Ask: For CC(=O)OC12COC1CC(O)C1(C)C(=O)C(O)C3=C(C)C(OC(=O)C(O)C(NC(=O)OC(C)(C)C)c4ccccc4)CC(O)(C(OC(=O)c4ccccc4)C21)C3(C)C (stereo not given) + CCn1c(-c2cc(N3CCN(C)CC3)cnc2C(C)OC)c2c3cc(ccc31)-c1csc(n1)CC(NC(=O)C1CC1C)C(=O)N1CCCC(N1)C(=O)OCC(C)(C)C2 , what call appears in the results of this test?
Result: active

Ask: For Nc1ccn(C2OC(CO)C(O)C2(F)F)c(=O)n1 (stereo not given) + CCn1c(-c2cccnc2C(C)OC)c2c3cc(ccc31)N1CCOC(CC(NC(=O)C(C(C)C)N(C)C(=O)C3(F)CCN(C(=O)C#CC(C)(C)N(C)C)CC3)C(=O)N3CCCC(N3)C(=O)OCC(C)(C)C2)C1 , what call appears in the results of this test?
Result: active

Ask: For CC1(O)CCCC1n1c(=O)c(C(F)F)cc2cnc(NC3CCN(S(C)(=O)=O)CC3)nc21 (stereo not given) + CCn1c(-c2cccnc2C(C)OC)c2c3cc(ccc31)N1CCOC(CC(NC(=O)C(C(C)C)N(C)C(=O)C3(F)CCN(C(=O)C#CC(C)(C)N(C)C)CC3)C(=O)N3CCCC(N3)C(=O)OCC(C)(C)C2)C1 , what call appears in the results of this test?
Result: inactive

Ask: For CC(C)NCC(C(=O)N1CCN(c2ncnc3c2C(C)CC3O)CC1)c1ccc(Cl)cc1 (stereo not given) + CCn1c(-c2cc(N3CCN(C)CC3)cnc2C(C)OC)c2c3cc(ccc31)-c1csc(n1)CC(NC(=O)C1CC1C)C(=O)N1CCCC(N1)C(=O)OCC(C)(C)C2 , what call appears in the results of this test?
Result: active

Ask: For C=CC(=O)Nc1cc(Nc2nccc(-c3cn(C)c4ccccc34)n2)c(OC)cc1N(C)CCN(C)C + CCn1c(-c2cccnc2C(C)OC)c2c3cc(ccc31)N1CCOC(CC(NC(=O)C(C(C)C)N(C)C(=O)C3(F)CCN(C(=O)C#CC(C)(C)N(C)C)CC3)C(=O)N3CCCC(N3)C(=O)OCC(C)(C)C2)C1 , what call appears in the results of this test?
Result: inactive

Ask: For CCC(CC)c1cc(NC2CCC(N)C2)n2nccc2n1 (stereo not given) + CCn1c(-c2cc(N3CCN(C)CC3)cnc2C(C)OC)c2c3cc(ccc31)-c1csc(n1)CC(NC(=O)C1CC1C)C(=O)N1CCCC(N1)C(=O)OCC(C)(C)C2 , what call appears in the results of this test?
Result: active

Ask: For CC(Nc1ccc2c(c1)OCCn1cc(N3C(=O)OCC3C(F)F)nc1-2)C(N)=O (stereo not given) + CCn1c(-c2cc(N3CCN(C)CC3)cnc2C(C)OC)c2c3cc(ccc31)-c1csc(n1)CC(NC(=O)C1CC1C)C(=O)N1CCCC(N1)C(=O)OCC(C)(C)C2 , what call appears in the results of this test?
Result: active

Ask: For CCN1CCN(Cc2ccc(Nc3ncc(F)c(-c4cc(F)c5nc(C)n(C(C)C)c5c4)n3)nc2)CC1 + CCn1c(-c2cc(N3CCN(C)CC3)cnc2C(C)OC)c2c3cc(ccc31)-c1csc(n1)CC(NC(=O)C1CC1C)C(=O)N1CCCC(N1)C(=O)OCC(C)(C)C2 , what call appears in the results of this test?
Result: active

Ask: For CC(Nc1ccc2c(c1)OCCn1cc(N3C(=O)OCC3C(F)F)nc1-2)C(N)=O (stereo not given) + CCn1c(-c2cccnc2C(C)OC)c2c3cc(ccc31)N1CCOC(CC(NC(=O)C(C(C)C)N(C)C(=O)C3(F)CCN(C(=O)C#CC(C)(C)N(C)C)CC3)C(=O)N3CCCC(N3)C(=O)OCC(C)(C)C2)C1 , what call appears in the results of this test?
Result: inactive

Ask: For CC1(O)CCCC1n1c(=O)c(C(F)F)cc2cnc(NC3CCN(S(C)(=O)=O)CC3)nc21 (stereo not given) + CCn1c(-c2cc(N3CCN(C)CC3)cnc2C(C)OC)c2c3cc(ccc31)-c1csc(n1)CC(NC(=O)C1CC1C)C(=O)N1CCCC(N1)C(=O)OCC(C)(C)C2 , what call appears in the results of this test?
Result: active

Ask: For NC1c2ccccc2OC12CCN(c1cnc3c(N4CCCc5ncccc54)n[nH]c3n1)CC2 (stereo not given) + CCn1c(-c2cc(N3CCN(C)CC3)cnc2C(C)OC)c2c3cc(ccc31)-c1csc(n1)CC(NC(=O)C1CC1C)C(=O)N1CCCC(N1)C(=O)OCC(C)(C)C2 , what call appears in the results of this test?
Result: active

Ask: For C=CC(=O)N1CCN(c2nc(OCC3CCCN3C)nc3c(F)c(-c4nc(N)cc(C)c4C(F)(F)F)c(Cl)cc23)C(C)C1 (stereo not given) + CCn1c(-c2cccnc2C(C)OC)c2c3cc(ccc31)N1CCOC(CC(NC(=O)C(C(C)C)N(C)C(=O)C3(F)CCN(C(=O)C#CC(C)(C)N(C)C)CC3)C(=O)N3CCCC(N3)C(=O)OCC(C)(C)C2)C1 , what call appears in the results of this test?
Result: inactive

Ask: For CC(=O)OC12COC1CC(O)C1(C)C(=O)C(O)C3=C(C)C(OC(=O)C(O)C(NC(=O)OC(C)(C)C)c4ccccc4)CC(O)(C(OC(=O)c4ccccc4)C21)C3(C)C (stereo not given) + CCn1c(-c2cccnc2C(C)OC)c2c3cc(ccc31)N1CCOC(CC(NC(=O)C(C(C)C)N(C)C(=O)C3(F)CCN(C(=O)C#CC(C)(C)N(C)C)CC3)C(=O)N3CCCC(N3)C(=O)OCC(C)(C)C2)C1 , what call appears in the results of this test?
Result: active
